Numbers sourced from PubChem BioAssay AID1259313.

Tested on: Glutamate receptor ionotropic, NMDA 3A (GRIN3A) ligand-binding domain
Experiment: binders of NR3A ligand-binding domain, primary screen, biophysical, differential scanning fluorimetry, uHTS (AID 1259313)
Details: NR3A LBD differential scanning fluorimetry, at 25 µM, hits give high values, 0% = protein alone, 100% = glycine-bound protein
In all, about 340,000 compounds went through this assay and about 8,500 (2.5%) were called active. The sample as a whole holds a higher share of actives than the screen did.

compound: O=C(NCCNc1ccc([N+](=O)[O-])cc1Cl)c1ccccc1F
Tm shift relative to glycine control / %: -1.3
//
compound: O=[N+]([O-])c1ccc2[nH]c3c(c2c1)CCCC3O (stereo not drawn)
Tm shift relative to glycine control / %: 5.4
//
compound: NS(=O)(=O)c1ccc(Nc2nc(-c3ccccc3)cs2)cc1
Tm shift relative to glycine control / %: 15.5
//
compound: CC(CNc1ccc([N+](=O)[O-])cc1)NC(=O)c1ccccc1Br (stereo not drawn)
Tm shift relative to glycine control / %: 2.55
//
compound: N#CC1=C(N)Oc2cc(O)ccc2C1C1CCCCC1 (stereo not drawn)
Tm shift relative to glycine control / %: 12
//
compound: Oc1ccc(-c2cccc(-c3ccc(O)cc3)c2)cc1
Tm shift relative to glycine control / %: 31.9
//
compound: COc1ccc(N2CCN(C(=O)CNC(=O)c3ccc(C(C)(C)C)cc3)CC2)cc1
Tm shift relative to glycine control / %: 3.46
//
compound: O=C(OCc1ccc(-c2ccccc2)cc1)c1cccc(O)c1
Tm shift relative to glycine control / %: 9.28
//
compound: COc1ccccc1C(=O)OCC(=O)NCCNC(=O)COC(=O)c1ccccc1OC
Tm shift relative to glycine control / %: -2.11
//
compound: CCCCC(=O)N(c1ccc(OC)cc1)C1C=CS(=O)(=O)C1 (stereo not drawn)
Tm shift relative to glycine control / %: -8.09
//
compound: Cc1ccc(-c2c3c(=O)n(C)c(=O)n(C)c3cn2-n2cnnc2)cc1
Tm shift relative to glycine control / %: -0.82
//
compound: CCOC(=O)C1Nc2ccc(C(F)(F)F)cc2C2C=CCC12 (stereo not drawn)
Tm shift relative to glycine control / %: 52.4
//
compound: Cc1cc(N=Nc2ccc3ccccc3c2)ccc1O
Tm shift relative to glycine control / %: 28.8
//
compound: Oc1ccc(-c2nncn2-c2ccccc2)cc1
Tm shift relative to glycine control / %: -3.14
//
compound: CCOC(=O)CN(C(=O)COc1nc(C)cc(C)c1C#N)c1ccc(Cl)cc1
Tm shift relative to glycine control / %: 0.21
//
compound: Cc1ccc(-c2c3c(=O)n(C)c(=O)n(C)c3cn2-c2ccccc2O)cc1
Tm shift relative to glycine control / %: 22.9
//
compound: Cc1csc2nc(O)c(C(=O)NCCN3CCOCC3)c(=O)n12
Tm shift relative to glycine control / %: 1.24
//
compound: CCOc1ccccc1NC(=S)C(=C([O-])c1ccc2c(c1)OCCO2)[n+]1ccc(CC)cc1
Tm shift relative to glycine control / %: -1.27
//
compound: O=C(c1ccncc1)N1CCN(S(=O)(=O)c2cccc([N+](=O)[O-])c2)CC1
Tm shift relative to glycine control / %: 2.5
//
compound: O=C(CCN1C(=O)C2CCCCC2C1=O)Nc1ccc(OC(F)F)cc1 (stereo not drawn)
Tm shift relative to glycine control / %: 2.89
//
compound: N#CC1=C(N)Oc2cc(N)ccc2C1c1ccccc1 (stereo not drawn)
Tm shift relative to glycine control / %: -2.17
//
compound: O=C(NCCc1c[nH]c2ccccc12)C1CCN(Cc2ccc(Br)cc2)CC1
Tm shift relative to glycine control / %: -4.03
//
compound: O=C(NCCNc1ccc([N+](=O)[O-])cc1)c1cccc2c(Br)cccc12
Tm shift relative to glycine control / %: 23.8
